observed property: IC50 (nM)
Number in nM, nothing else.

Incoming: Please tell me: IC50 of C[C@H]1CN(c2cc(F)c(C3=CCN(C(=O)OC4CC(F)(F)C4)CC3)c(F)c2NC(=O)c2c[nH]c(=O)cc2C(F)(F)F)CCN1C , system WDR5 (Homo sapiens, UniProt P61964)?
Outgoing: 17.5

Incoming: Please tell me: IC50 of CC(C)[C@H]1CN(c2ncc(-c3c(F)cc(N4C[C@@H](C)N(C)[C@@H](C)C4)c(NC(=O)c4c[nH]c(=O)cc4C(F)(F)F)c3F)cn2)CCO1 , system WDR5 (Homo sapiens, UniProt P61964)?
Outgoing: 17.7

Incoming: Please tell me: IC50 of C[C@H]1CN(c2cc(F)c(C3=CCN(c4ncc(F)cn4)C3)c(F)c2NC(=O)c2c[nH]c(=O)cc2C(F)F)CCN1C , system WDR5 (Homo sapiens, UniProt P61964)?
Outgoing: 16

Incoming: Please tell me: IC50 of C[C@@H]1CN(c2cc(F)c(-c3ccc(N4CCO[C@@H](C)C4)nc3)c(F)c2NC(=O)c2c[nH]c(=O)cc2C(F)(F)F)C[C@H](C)N1C , system WDR5 (Homo sapiens, UniProt P61964)?
Outgoing: 16.4

Incoming: Please tell me: IC50 of CC(C)OC(=O)N1CC=C(c2c(F)cc(N3CCN(C)[C@@H](C)C3)c(NC(=O)c3c[nH]c(=O)cc3C(F)(F)F)c2F)CC1 , system WDR5 (Homo sapiens, UniProt P61964)?
Outgoing: 15.2

Incoming: Please tell me: IC50 of C[C@@H]1CN(c2cc(F)c(C3=CCN(C(=O)OC4CC(F)(F)C4)CC3)c(F)c2NC(=O)c2c[nH]c(=O)cc2C(F)(F)F)C[C@H](C)N1C , system WDR5 (Homo sapiens, UniProt P61964)?
Outgoing: 12.5

----------
- target: WDR5 (Homo sapiens)
Label key: MET means IC50 under 20 nM; NOT MET means IC50 of 20 nM or more.

Incoming: IC50 strictly < 20 nM for this molecule? CNC(=O)c1ccc(-c2c(F)cc(N3C[C@@H](C)N(C)[C@@H](C)C3)c(NC(=O)c3c[nH]c(=O)cc3C(F)(F)F)c2F)cc1F [Example 24]
Outgoing: NOT MET

Incoming: IC50 strictly < 20 nM for this molecule? COc1cc(N2CC=C(c3c(F)cc(N4CCN(C)[C@@H](C)C4)c(NC(=O)c4c[nH]c(=O)cc4C(F)F)c3F)C2)ncn1 [Example 74]
Outgoing: MET

Incoming: IC50 strictly < 20 nM for this molecule? C[C@@H]1CN(c2ncc(-c3c(F)cc(N4CCN(C)[C@@H](C)C4)c(NC(=O)c4cn(C)c(=O)cc4C(F)(F)F)c3F)cn2)C[C@H](C)O1 [Example 164]
Outgoing: MET

Incoming: IC50 strictly < 20 nM for this molecule? C[C@@H]1CN(c2ccc(-c3c(F)cc(N4C[C@@H](C)N(C)[C@@H](C)C4)c(NC(=O)c4c[nH]c(=O)cc4C(F)(F)F)c3F)cn2)C[C@H](C)O1 [Example 62]
Outgoing: MET

Incoming: IC50 strictly < 20 nM for this molecule? C[C@H]1CN(c2cc(F)c(C3=CCN(c4ccnc(C#N)n4)CC3)c(F)c2NC(=O)c2c[nH]c(=O)cc2C(F)(F)F)CCN1C [Example 112]
Outgoing: MET

Incoming: IC50 strictly < 20 nM for this molecule? C[C@@H]1CN(c2ccc(-c3c(F)cc(N4CCN(C)[C@@H](C)C4)c(NC(=O)c4c[nH]c(=O)cc4C(F)F)c3F)cn2)C[C@H](C)O1 [Example 182]
Outgoing: NOT MET

Incoming: IC50 strictly < 20 nM for this molecule? COc1cnc(N2CCC=C(c3c(F)cc(N4CCN(C)[C@@H](C)C4)c(NC(=O)c4c[nH]c(=O)cc4C(F)F)c3F)C2)nc1 [Example 49]
Outgoing: NOT MET

Incoming: IC50 strictly < 20 nM for this molecule? CC(C)OC(=O)N1CC=C(c2c(F)cc(N3CCN(C)[C@@H](C)C3)c(NC(=O)c3c[nH]c(=O)cc3C(F)(F)F)c2F)C1 [Example 37]
Outgoing: MET

Incoming: IC50 strictly < 20 nM for this molecule? C[C@H]1CN(c2cc(F)c(-c3cnc(N4CC5CCC(C4)O5)nc3)c(F)c2NC(=O)c2c[nH]c(=O)cc2C(F)F)CCN1C [Example 155]
Outgoing: MET

Incoming: IC50 strictly < 20 nM for this molecule? C[C@@H]1CN(c2ccc(-c3c(F)cc(N4CCN(C)[C@@H](C)C4)c(NC(=O)c4c[nH]c(=O)cc4C(F)F)c3F)cn2)CCO1 [Example 181]
Outgoing: NOT MET

Incoming: IC50 strictly < 20 nM for this molecule? C[C@H]1CN(c2ccc(-c3c(F)cc(N4CCN(C)[C@@H](C)C4)c(NC(=O)c4c[nH]c(=O)cc4C(F)(F)F)c3F)cn2)CCO1 [Example 171]
Outgoing: MET

Incoming: IC50 strictly < 20 nM for this molecule? C[C@@H]1CN(c2ccc(-c3c(F)cc(N4CCN(C)[C@@H](C)C4)c(NC(=O)c4c[nH]c(=O)cc4C(F)(F)F)c3F)cn2)CCO1 [Example 169]
Outgoing: MET

Incoming: IC50 strictly < 20 nM for this molecule? C[C@@H]1CN(c2nccc(-c3c(F)cc(N4CCN(C)[C@@H](C)C4)c(NC(=O)c4ccc(F)cc4C(F)F)c3F)n2)C[C@H](C)O1 [Example 32, Formic Acid]
Outgoing: NOT MET

Incoming: IC50 strictly < 20 nM for this molecule? C[C@H]1CN(c2cc(F)c(C3=CCCN(C(=O)OC4CC(F)(F)C4)C3)c(F)c2NC(=O)c2c[nH]c(=O)cc2C(F)(F)F)CCN1C [Example 46]
Outgoing: MET

Incoming: IC50 strictly < 20 nM for this molecule? C[C@H]1CN(c2cc(F)c(C3=CCCN(C(=O)OC4(C)CCC4)C3)c(F)c2NC(=O)c2c[nH]c(=O)cc2C(F)F)CCN1C [Example 94]
Outgoing: MET

Incoming: IC50 strictly < 20 nM for this molecule? C[C@@H]1CN(c2ncc(-c3c(F)cc(N4CCN(C)[C@@H](C)C4)c(NC(=O)c4c[nH]c(=O)cc4C(F)(F)F)c3F)cn2)CCO1 [Example 127]
Outgoing: MET

Incoming: IC50 strictly < 20 nM for this molecule? C[C@@H]1CN(c2cc(F)c(-c3cc(C(N)=O)c(F)cc3F)c(F)c2NC(=O)c2c[nH]c(=O)cc2C(F)(F)F)C[C@H](C)N1C [Example 30]
Outgoing: NOT MET

Incoming: IC50 strictly < 20 nM for this molecule? CNC(=O)c1cc(-c2c(F)cc(N3C[C@@H](C)N(C)[C@@H](C)C3)c(NC(=O)c3c[nH]c(=O)cc3C(F)(F)F)c2F)ccc1F [Example 29]
Outgoing: NOT MET

Incoming: IC50 strictly < 20 nM for this molecule? C[C@H]1CN(c2ncc(-c3c(F)cc(N4CCN(C)[C@@H](C)C4)c(NC(=O)c4c[nH]c(=O)cc4C(F)(F)F)c3F)cn2)C[C@H](C)O1 [Example 87]
Outgoing: MET

Incoming: IC50 strictly < 20 nM for this molecule? CC(C)OC(=O)N1CC=C(c2c(F)cc(N3CCN(C)[C@@H](C)C3)c(NC(=O)c3c[nH]c(=O)cc3C(F)F)c2F)C1 [Example 36]
Outgoing: MET

Incoming: IC50 strictly < 20 nM for this molecule? C[C@H]1CN(c2cc(F)c(C3=CCN(C(=O)OC4CC(F)(F)C4)C3)c(F)c2NC(=O)c2c[nH]c(=O)cc2C(F)(F)F)CCN1C [Example 45]
Outgoing: MET

Incoming: IC50 strictly < 20 nM for this molecule? C[C@H]1CN(c2cc(F)c(C3=CCN(C(=O)c4csc(CN(C)C)n4)CC3)c(F)c2NC(=O)c2c[nH]c(=O)cc2C(F)F)CCN1C [Example 187]
Outgoing: MET

Incoming: IC50 strictly < 20 nM for this molecule? C[C@@H]1CN(c2cc(F)c(-c3ccc(C(N)=O)c(F)c3F)c(F)c2NC(=O)c2c[nH]c(=O)cc2C(F)(F)F)C[C@H](C)N1C [Example 26]
Outgoing: NOT MET

----------
I'd be grateful if you could share measured log10 EC50 for these entries.
- Tested on: MV4-11 cells
- method notes: Cell proliferation assay (ATPlite)
- Assay type: cell-based
- recorded conditions: Homo sapiens, 120 h; MV4-11 cells, five days; read-out: GI MV411 EC50
Plainly stated, the numbers are log10 of EC50 given in µM.

Incoming: Consider the molecule shown here: C[C@H]1CN(c2cc(F)c(C3=CCCN(c4ncccn4)C3)c(F)c2NC(=O)c2c[nH]c(=O)cc2C(F)F)CCN1C [Example 54] What is its recorded log10 EC50?
Outgoing: -0.16

Incoming: Consider the molecule shown here: C[C@@H]1CN(c2ncc(-c3c(F)cc(N4CCN(C)[C@@H](C)C4)c(NC(=O)c4c[nH]c(=O)cc4C(F)(F)F)c3F)cn2)CCO1 [Example 127] What is its recorded log10 EC50?
Outgoing: -1.99

Incoming: Consider the molecule shown here: C[C@H]1CN(c2cc(F)c(C3=CCN(C(=O)OC4(C)CCC4)CC3)c(F)c2NC(=O)c2c[nH]c(=O)cc2C(F)(F)F)CCN1C [Example 93] What is its recorded log10 EC50?
Outgoing: -1.71

Incoming: Consider the molecule shown here: C[C@@H]1CN(c2cc(F)c(-c3cnc(N4CCC(F)(F)CC4)nc3)c(F)c2NC(=O)c2c[nH]c(=O)cc2C(F)(F)F)C[C@H](C)N1C [Example 61] What is its recorded log10 EC50?
Outgoing: -1.64

Incoming: Consider the molecule shown here: C[C@H]1CN(c2cc(F)c(C3=CCN(c4ncc(C#N)s4)CC3)c(F)c2NC(=O)c2c[nH]c(=O)cc2C(F)(F)F)CCN1C [Example 98] What is its recorded log10 EC50?
Outgoing: -1.01

Incoming: Consider the molecule shown here: C[C@@H]1CN(c2ccc(-c3c(F)cc(N4C[C@@H](C)N(C)[C@@H](C)C4)c(NC(=O)c4c[nH]c(=O)cc4C(F)(F)F)c3F)cn2)C[C@H](C)O1 [Example 62] What is its recorded log10 EC50?
Outgoing: -1.60

Incoming: Consider the molecule shown here: COc1cc(N2CC=C(c3c(F)cc(N4CCN(C)[C@@H](C)C4)c(NC(=O)c4c[nH]c(=O)cc4C(F)(F)F)c3F)C2)ncn1 [Example 75] What is its recorded log10 EC50?
Outgoing: -1.45

Incoming: Consider the molecule shown here: C[C@H]1CN(c2cc(F)c(C3=CCN(C(=O)OC4CC(F)(F)C4)C3)c(F)c2NC(=O)c2c[nH]c(=O)cc2C(F)F)CCN1C [Example 44] What is its recorded log10 EC50?
Outgoing: -0.74

Incoming: Consider the molecule shown here: C[C@@H]1CN(c2ncc(-c3c(F)cc(N4CCN(C)[C@@H](C)C4)c(NC(=O)c4cn(C)c(=O)cc4C(F)(F)F)c3F)cn2)C[C@H](C)O1 [Example 164] What is its recorded log10 EC50?
Outgoing: -1.14

Incoming: Consider the molecule shown here: C[C@H]1CN(c2ccc(-c3c(F)cc(N4CCN(C)[C@@H](C)C4)c(NC(=O)c4ccc(F)cc4C(F)F)c3F)cn2)CCO1 [Example 179] What is its recorded log10 EC50?
Outgoing: -0.85

Incoming: Consider the molecule shown here: CC(C)OC(=O)N1CC=C(c2c(F)cc(N3CCN(C)[C@@H](C)C3)c(NC(=O)c3c[nH]c(=O)cc3C(F)(F)F)c2F)C1 [Example 37] What is its recorded log10 EC50?
Outgoing: -0.97

Incoming: Consider the molecule shown here: C[C@@H]1CN(c2ncc(-c3c(F)cc(N4CCN(C)[C@@H](C)C4)c(NC(=O)c4ccc(F)cc4C(F)(F)F)c3F)cn2)C[C@H](C)O1 [Example 66, Formic Acid] What is its recorded log10 EC50?
Outgoing: -1.34
